Source: ChEMBL document CHEMBL3044995

Assay: Toxicity in Swiss Mus musculus (mouse) measured after 6 days
Format: organism-based
Details: in vivo
experimental.endpoint: LD50 at 144 h (mg/kg)

CCCC/C=C\CCCCCCCCCCC(=O)C(F)(F)F :: 1000
CCCCCCCCSCC(=O)C(F)(F)F :: 1000
